Entries and their remaining at 10 min, 2 µM
- protocolDescription: Stability in human plasma
- Assay type: in vitro ADME
- setupConditions: both sexes, human, plasma; 10 min
reportedMetric: remaining at 10 min, 2 µM (%)

INSERT INTO results (molecule, observedvalue) VALUES
  ('C=C(C)[C@@H]1[C@H]2OC(=O)[C@@H]1[C@]1(O)C[C@H]3O[C@]34C(=O)O[C@H]2[C@]14C [PXN, picrotoxinin]', 130),
  ('C=C(C)C1C2OC(=O)C1(C)C1(O)CC3OC34C(=O)OC2C41C (centres unmarked) [5MePXN, 5-methylpicrotoxinin]', 103);

----------
- assaySystem: Drosophila RDL (Drosophila melanogaster, UniProt P25123)
- Construct: expressed in transfected cells; host or cells: Xenopus oocytes (Ecocyte, Austin, TX) microinjected with capped cRNA
- Sequence (P25123 45-606): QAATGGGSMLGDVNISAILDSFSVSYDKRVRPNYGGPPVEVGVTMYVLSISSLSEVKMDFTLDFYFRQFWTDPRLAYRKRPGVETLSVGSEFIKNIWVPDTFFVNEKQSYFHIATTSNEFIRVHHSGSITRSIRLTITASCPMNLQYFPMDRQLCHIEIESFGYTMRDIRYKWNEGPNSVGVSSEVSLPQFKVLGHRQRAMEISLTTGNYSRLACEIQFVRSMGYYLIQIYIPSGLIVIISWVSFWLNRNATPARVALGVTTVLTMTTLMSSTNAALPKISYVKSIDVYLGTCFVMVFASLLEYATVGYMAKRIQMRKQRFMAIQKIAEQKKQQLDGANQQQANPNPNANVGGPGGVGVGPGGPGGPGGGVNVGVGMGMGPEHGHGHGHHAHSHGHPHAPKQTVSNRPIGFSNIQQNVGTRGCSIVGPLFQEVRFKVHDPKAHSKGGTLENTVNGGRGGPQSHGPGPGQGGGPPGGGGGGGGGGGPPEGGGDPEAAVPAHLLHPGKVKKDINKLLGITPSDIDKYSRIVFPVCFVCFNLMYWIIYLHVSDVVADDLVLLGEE
- protocolDescription: RDL receptors assay: two-electrode voltage clamp electrophysiology in Xenopus oocytes
- Assay type: cell-based
- setupConditions: block of 10 μM GABA response, pre-incubation, -60 mV; Supplementary Table 9 (PXN series); n = 4; read-out: IC50
pIC50: −log10 of the molar value.
Please enter yes where pIC50 is greater than or equal to 6, and no where it is lower.

INSERT INTO measurements (compound, assaysystem, labelvalue) VALUES
  ('CC(C)(F)C1C2OC(=O)C1C1(F)CC3OC34C(=O)OC2C14C (stereo not shown)', 'Drosophila RDL (Drosophila melanogaster, UniProt P25123)', 'no'),
  ('C=C(C)C1C2OC(=O)C1C1(O)CC=C3C(=O)OC2C31C (stereo not shown)', 'Drosophila RDL (Drosophila melanogaster, UniProt P25123)', 'no'),
  ('CC(C)(O)C1C2OC(=O)C1C1(F)CC3OC34C(=O)OC2C14C (stereo not shown)', 'Drosophila RDL (Drosophila melanogaster, UniProt P25123)', 'no'),
  ('CC(C)C1C2OC(=O)C1C1(F)CC3OC34C(=O)OC2C14C (stereo not shown)', 'Drosophila RDL (Drosophila melanogaster, UniProt P25123)', 'yes'),
  ('CC(C)(F)C1C2OC(=O)C1C1(O)CC3OC34C(=O)OC2C14C (stereo not shown)', 'Drosophila RDL (Drosophila melanogaster, UniProt P25123)', 'no');

----------
- protocolDescription: Stability in human plasma
- Format: in vitro ADME
- setupConditions: both sexes, human, plasma; 60 min
reportedMetric: remaining at 1 h, 2 µM (%)

INSERT INTO assay_data (molecule, reportedmetric, observedvalue) VALUES
  ('C=C(C)C1C2OC(=O)C1(C)C1(O)CC3OC34C(=O)OC2C41C (centres unmarked)', 'remaining at 1 h, 2 µM', 84.5),
  ('C=C(C)[C@@H]1[C@H]2OC(=O)[C@@H]1[C@]1(O)C[C@H]3O[C@]34C(=O)O[C@H]2[C@]14C', 'remaining at 1 h, 2 µM', 72.9);

----------
Entries and their pIC50
- assaySystem: rat GABAA ion channel
- protocolDescription: Non-selective rat GABAA ion channel [3H]TBOB binding (antagonist radioligand) assay, rat cerebral cortex
- setupConditions: [3H]TBOB displacement, Supplementary Table 8 (5MePXN series), n = 1
pIC50: −log10 of the molar value.
reportedMetric: pIC50

INSERT INTO results (compound, resultcomparator, observedvalue) VALUES
  ('CC(C)(O)C1C2OC(=O)C1(C)C1(F)CC3OC34C(=O)OC2C41C (stereo not drawn)', '<', 3.70),
  ('C=C(C)C1C2OC(=O)C1(C)C1(O)CC3OC34C(=O)OC2C41C (stereo not drawn)', '=', 5.74),
  ('CC(C)C1C2OC(=O)C1(C)C1(O)CC3OC34C(=O)OC2C41C (stereo not drawn)', '=', 4.64),
  ('CC(C)(F)C1C2OC(=O)C1(C)C1(F)CC3OC34C(=O)OC2C41C (stereo not drawn)', '<', 3.70),
  ('C=C(C)C1C2OC(=O)C1(C)C1(O)CC=C3C(=O)OC2C31C (stereo not drawn)', '=', 5.04),
  ('CC(C)C1C2OC(=O)C1(C)C1(F)CC3OC34C(=O)OC2C41C (stereo not drawn)', '=', 4.28);

----------
- protocolDescription: Stability in mouse plasma
- Type: in vitro ADME
- setupConditions: male, CD-1, mouse, plasma; 60 min
Entries and their remaining at 1 h, 2 µM
reportedMetric: remaining at 1 h, 2 µM (%)

INSERT INTO results (compound, observedvalue) VALUES
  ('C=C(C)C1C2OC(=O)C1(C)C1(O)CC3OC34C(=O)OC2C41C (centres unmarked)', 75.7),
  ('C=C(C)[C@@H]1[C@H]2OC(=O)[C@@H]1[C@]1(O)C[C@H]3O[C@]34C(=O)O[C@H]2[C@]14C', 67.4);

----------
- protocolDescription: Stability in human plasma
- Type: in vitro ADME
- setupConditions: both sexes, human, plasma; 120 min
reportedMetric: remaining at 2 h, 2 µM (%)

INSERT INTO assay_data (molecule, observedvalue) VALUES
  ('C=C(C)[C@@H]1[C@H]2OC(=O)[C@@H]1[C@]1(O)C[C@H]3O[C@]34C(=O)O[C@H]2[C@]14C [PXN, picrotoxinin]', 55.8),
  ('C=C(C)C1C2OC(=O)C1(C)C1(O)CC3OC34C(=O)OC2C41C (centres unmarked) [5MePXN, 5-methylpicrotoxinin]', 77.7);

----------
- assaySystem: rat GABAA ion channel
- protocolDescription: Non-selective rat GABAA ion channel [3H]TBOB binding (antagonist radioligand) assay, rat cerebral cortex
- setupConditions: [3H]TBOB displacement, Supplementary Table 8 (5MePXN series), n = 1
pIC50: −log10 of the molar value.
reportedMetric: pIC50

INSERT INTO results (molecule, assaysystem, reportedmetric, resultcomparator, observedvalue) VALUES
  ('CC(C)(C)C1C2OC(=O)C1(C)C1(O)CC3OC34C(=O)OC2C41C (centres unmarked)', 'rat GABAA ion channel', 'pIC50', '=', 5.13),
  ('CC(C)(F)C1C2OC(=O)C1(C)C1(O)CC3OC34C(=O)OC2C41C (centres unmarked)', 'rat GABAA ion channel', 'pIC50', '=', 4.00),
  ('C=C(C)C1C2OC(=O)C1(C)C1(F)CC3OC34C(=O)OC2C41C (centres unmarked)', 'rat GABAA ion channel', 'pIC50', '=', 4.85),
  ('CC1(C2C3OC(=O)C2(C)C2(O)CC4OC45C(=O)OC3C52C)CC1 (centres unmarked)', 'rat GABAA ion channel', 'pIC50', '=', 5.11),
  ('CC(C)(O)C1C2OC(=O)C1(C)C1(O)CC3OC34C(=O)OC2C41C (centres unmarked)', 'rat GABAA ion channel', 'pIC50', '<', 3.70);

----------
- protocolDescription: Stability in mouse plasma
- Type: in vitro ADME
- setupConditions: male, CD-1, mouse, plasma; 30 min
reportedMetric: remaining at 0.5 h, 2 µM (%)

INSERT INTO assay_data (compound, observedvalue) VALUES
  ('C=C(C)C1C2OC(=O)C1(C)C1(O)CC3OC34C(=O)OC2C41C (centres unmarked)', 87.9),
  ('C=C(C)[C@@H]1[C@H]2OC(=O)[C@@H]1[C@]1(O)C[C@H]3O[C@]34C(=O)O[C@H]2[C@]14C', 87.1);

----------
- protocolDescription: Stability in mouse plasma
- Format: in vitro ADME
- setupConditions: male, CD-1, mouse, plasma; 10 min
reportedMetric: remaining at 10 min, 2 µM (%)

INSERT INTO measurements (compound, observedvalue) VALUES
  ('C=C(C)C1C2OC(=O)C1(C)C1(O)CC3OC34C(=O)OC2C41C (centres unmarked)', 97.9),
  ('C=C(C)[C@@H]1[C@H]2OC(=O)[C@@H]1[C@]1(O)C[C@H]3O[C@]34C(=O)O[C@H]2[C@]14C', 102);

----------
- assaySystem: rat GABAA ion channel
- protocolDescription: Non-selective rat GABAA ion channel [3H]TBOB binding (antagonist radioligand) assay, rat cerebral cortex
- setupConditions: [3H]TBOB displacement, Supplementary Table 8 (PXN series), n = 1
Entries and their log10 IC50
reportedMetric: log10 IC50 (log10 of the value in nM)

INSERT INTO measurements (compound, reportedmetric, observedvalue) VALUES
  ('C=C(C)C1C2OC(=O)C1C1(F)CC3OC34C(=O)OC2C14C (centres unmarked)', 'log10 IC50', 2.63),
  ('CC1(C2C3OC(=O)C2C2(O)CC4OC45C(=O)OC3C25C)CC1 (centres unmarked)', 'log10 IC50', 2.59),
  ('CC(C)C1C2OC(=O)C1C1(O)CC3OC34C(=O)OC2C14C (centres unmarked)', 'log10 IC50', 3.00),
  ('CC(C)C1C2OC(=O)C1C1(F)CC3OC34C(=O)OC2C14C (centres unmarked)', 'log10 IC50', 3.81),
  ('CC(C)(O)C1C2OC(=O)C1C1(F)CC3OC34C(=O)OC2C14C (centres unmarked)', 'log10 IC50', 4.75),
  ('CC(C)(O)[C@@H]1[C@H]2OC(=O)[C@@H]1[C@]1(O)C[C@H]3O[C@]34C(=O)O[C@H]2[C@]14C [PTN, picrotin, reference compound]', 'log10 IC50', 4.73),
  ('C=C(C)C1C2OC(=O)C1C1(O)CC=C3C(=O)OC2C31C (centres unmarked)', 'log10 IC50', 2.74),
  ('C=C(C)[C@@H]1[C@H]2OC(=O)[C@@H]1[C@]1(O)C[C@H]3O[C@]34C(=O)O[C@H]2[C@]14C', 'log10 IC50', 2.32),
  ('CC(C)(C)C1C2OC(=O)C1C1(O)CC3OC34C(=O)OC2C14C (centres unmarked)', 'log10 IC50', 2.49),
  ('CC(C)(F)C1C2OC(=O)C1C1(O)CC3OC34C(=O)OC2C14C (centres unmarked)', 'log10 IC50', 3.73),
  ('CC(C)(F)C1C2OC(=O)C1C1(F)CC3OC34C(=O)OC2C14C (centres unmarked)', 'log10 IC50', 4.51);
